# test_system: MAPK14 (human)
# test_details: Inhibition of MAPK14 Kinase Activity by PHAS-I Assay
Please provide measured IC50 for the entries that follow.
Express the result in nM but write the number alone.

Q) Quick one: IC50 of O=C(Nc1ccccc1F)N[C@@H](Cc1ccccc1)c1[nH]nc(-c2ccc(F)cc2)c1-c1ccncc1 ?
A) 14000

Q) Next up: C[C@@H](NS(=O)(=O)c1cc(Cl)cc(Cl)c1O)c1[nH]nc(-c2ccc(F)cc2)c1-c1ccncc1
A) 1110

Q) Now consider O=C(Nc1ccccc1)N[C@@H](Cc1ccccc1)c1[nH]nc(-c2ccc(F)cc2)c1-c1ccncc1 .
A) 2600

Q) Then what about the molecule O=C(NCCCc1[nH]nc(-c2ccc(F)cc2)c1-c1ccncc1)NCCN1CCOCC1 ?
A) 55
